Test: nonspecific calcium rise without TRPC4 – cell-based, HEK293 mu-opioid receptor line, counter-screen for TRPC4 activator project, confirmation (AID 449723);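 note: counter screen cells carry the mu-opioid receptor alone and lack TRPC4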
Conditions: HEK293 mu-opioid cells, Fluo-4 calcium fluorescence, at 10 µM; stronger effect = higher value
Activity calls are given as the source filed them.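 Rule for the calls: active = hit in primary screen, with calcium signal over 5 SD above buffer well mean in both duplicates; inactive = the rest.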
READOUT: activation

Example entries and their recorded answers appear below.
CCCSc1nc(C)cc(C)c1S(=O)(=O)c1ccccc1C	inactive
CCOc1ccc2nc(NCCNC(=O)C3CC3)c(C)cc2c1	inactive
CCCCN(C)CCNC(=S)Nc1ccc2nc(N3CCN(CC)CC3)cc(C)c2c1	inactive
Cc1oc(-c2ccc(Cl)cc2)nc1CN1CCC(C(=O)N2CCc3ccccc3C2)CC1	inactive

Shift focus to the following entry.
Incoming: Return reported activation. Input compound: Cc1onc(-c2ccccc2)c1C(=O)NNC(=S)NC(=O)c1ccc2c(c1)OCO2
Outgoing: inactive

---

Would you kindly list activation for each of these compounds?
Molecular target: Short transient receptor potential channel 6 (Mus musculus)
Assay: TRPC6 opening by TRPC4 activator hits – cell-based, HEK293, membrane potential dye, duplicate, selectivity assay for TRPC4 activator project, confirmation (AID 434950);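 note: 0% = buffer only wells and 100% = acetylcholine maximal-effect wells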
Settings: HEK293 TRPC6, membrane potential fluorescence, at 10 µM; stronger effect = higher value
I only need the number, in %, no unit after it.

Incoming: Give activation for NC(N)=NN=C1CCCCCCCCCCC1
Outgoing: 32.5

Incoming: Annotate the compound O=C(COc1cc(Cl)c(Cl)cc1Cl)NCCc1ccccn1 with its measured activation.
Outgoing: 53.5

Incoming: Using known records, supply activation for CN(C)c1ccc(-c2sc(Nc3ccccc3)n[n+]2-c2ccc(F)cc2)cc1
Outgoing: 45

Incoming: Give the measured activation for CCn1c(N2CCN(C(=S)NCC(C)C)CC2)nc2ccccc21
Outgoing: 39.5

Incoming: Determine its reported activation: Cc1cc(C)cc(NC(=S)N2CCN(c3ncc(C(F)(F)F)cc3Cl)CC2)c1
Outgoing: 25

Incoming: Identify the reported activation for the following entry. O=[N+]([O-])c1ccc(C[n+]2cccc(O)c2)cc1
Outgoing: 28.5

Incoming: Specify activation for O=C(CCCCn1c(=O)[nH]c2ccccc2c1=O)NC1CCN(Cc2ccccc2)CC1 and stop.
Outgoing: 35

Incoming: Determine from records and report activation for CC(CN1CCCC(C(N)=O)C1)c1ccccc1 (centres undefined)
Outgoing: 30.5

Incoming: Quickly give me recorded activation for CCOC(=O)C1(Cc2cccc(F)c2)CCN(Cc2cnn(CC)c2C)CC1
Outgoing: 64

Incoming: Report activation for CC(C)C1CC(CCNCc2ccc(N(C)C)cc2)(c2ccccc2)CCO1 (centres undefined)
Outgoing: 29

Incoming: Identify the reported activation for the following entry. CC12CCCCN1CCCc1c2[nH]c2ccccc12 (centres undefined)
Outgoing: 35

Incoming: Look up and state reported activation for OCC1(CCc2ccccc2)CCN(Cc2cccn2-c2cccnc2)CC1
Outgoing: 55

Incoming: For the compound O=C(Cc1cccc(F)c1F)NC1CCCN(Cc2ccc(Cl)cc2)C1 (centres undefined) , give its measured activation value.
Outgoing: 37.5

Incoming: Respond only with activation recorded for Cc1onc(-c2ccccc2Cl)c1C(=O)N1CCN(C/C=C/c2ccccc2)CC1
Outgoing: 38.5

Incoming: In one line, give reported activation of the entry O=C1/C(=C\c2cc([N+](=O)[O-])ccc2O)SC(=S)N1Cc1ccc(Cl)cc1 .
Outgoing: 529

Incoming: Item CN(C)C(CNc1ccc(C(F)(F)F)cn1)c1ccccc1 (centres undefined) : provide activation
Outgoing: 32

Incoming: Assign activation to the following record: O=C(O)C1C2C=CC(C2)C1C(=O)N1CCN(C/C=C/c2ccccc2)CC1 (centres undefined)
Outgoing: 26

Incoming: Assign activation to the following record: Cc1noc(C)c1CCC(=O)NC1CCCN(Cc2ccc(CC(C)C)cc2)C1 (centres undefined)
Outgoing: 46

Incoming: Give a short answer stating reported activation for C=CCn1c(/N=C/c2ccc(N(C)C)cc2)nc2ccccc21 .
Outgoing: 159

Incoming: Respond only with activation recorded for O=C(c1sc2ccccc2c1Cl)N(Cc1ccccc1)C1CCS(=O)(=O)C1 (centres undefined)
Outgoing: 36

Incoming: Respond only with activation recorded for CCCCN(CC)CCNC(=O)Cn1cc2c(n1)-c1c(oc(C(=O)N3CCCC3)c1C)CC2
Outgoing: 34

Incoming: Read the entry Cc1ccc(-n2cc(CNC(C)c3cnn(C)c3C)c(-c3ccc(F)cc3)n2)cc1 (centres undefined) and write its reported activation.
Outgoing: 30.5

Incoming: Could you please provide reported activation for CN(CCc1ccccn1)C(=O)CC1C(=O)NCCN1Cc1ccc(-c2ccccc2)cc1 (centres undefined) ? Thanks!
Outgoing: 42.5

Incoming: Return activation (reported value) for this compound: CC[C@@H](C)[C@H](CNC)NC[C@@H](Cc1cccc2ccccc12)NCCc1cccc(C(F)(F)F)c1
Outgoing: 29

Incoming: Input Cc1oc(-c2ccccc2Cl)nc1CS(=O)CC(=O)NCCCN1CC(C)CC(C)C1 (centres undefined) , output reported activation.
Outgoing: 31

Incoming: Name the recorded activation of the item O=C(NC(=S)NNC(=O)c1ccccc1[N+](=O)[O-])c1ccc(Br)cc1 in your answer.
Outgoing: 29

Incoming: Item CC1CC(C)CN(CCCNC(=O)Cn2cccc2C(=O)c2ccccc2)C1 (centres undefined) : provide activation
Outgoing: 50.5

Incoming: Read off the recorded activation for CCC(=O)NC(C)C(c1cccs1)N1CCN(c2ccccc2)CC1 (centres undefined)
Outgoing: 29

Incoming: Answer with the recorded activation of S=C(NCCc1ccccn1)NC1CCCCC1 only.
Outgoing: 24.5

Incoming: Return activation (reported value) for this compound: CCOC(=O)C1(CC2CC2)CCN(Cc2cnc(-c3ccccc3C)nc2)CC1
Outgoing: 59.5

Incoming: Please report the measured activation for O=C(N/N=C/c1ccccc1F)NC1CCCCC1
Outgoing: 36.5

Incoming: # return recorded activation for input OC1(c2ccc(Br)cc2)CN(c2ccccc2)C2=[N+]1CCS2 (centres undefined)
Outgoing: 36.5

Incoming: State, in one line, measured activation of CC(C)(C)C(=O)/C=c1\s/c(=C\c2ccc(-c3ccc([N+](=O)[O-])cc3)o2)c(=O)n1CC(=O)NC(N)=O
Outgoing: 534

Incoming: Supply recorded activation for COCCCn1c(N)c(-c2nc3ccccc3n2C)c2nc3ccccc3nc21 here.
Outgoing: 137

Incoming: Read the entry c1ccc(Nc2ncnc3sc4c(c23)CCC4)cc1 and write its reported activation.
Outgoing: 30

Incoming: Name the recorded activation of the compound listed here: O=C(CC(=O)c1c(F)cccc1Cl)c1ccccc1O
Outgoing: 37

Incoming: Determine its reported activation: CCCC(=O)Nc1c(-c2ccccc2)c(=O)c(C)nn1-c1ccc(Cl)cc1
Outgoing: 33.5

Incoming: Report measured activation; entry is CCOC(=O)C1(Cc2ccccc2)CCN(Cc2cn[nH]c2-c2ccccc2)CC1
Outgoing: 76

Incoming: Return value of activation for input CN1C(CC(=O)Nc2ccc(Br)cc2)c2ccccc2CC1(C)C (centres undefined) , no commentary.
Outgoing: 28.5

Incoming: Give activation for CCCn1ncc(CN2CCC(n3nccc3NC(=O)CCc3ccccc3)CC2)c1C
Outgoing: 36.5

Incoming: Could you please provide reported activation for O=C(NCCNC1CCC(c2ccccc2)CC1)c1cccs1 (centres undefined) ? Thanks!
Outgoing: 66

Incoming: Check the records and state activation for CCOC(=O)C1(CCOc2ccccc2)CCN(Cc2cc(OC)ccc2OC)CC1
Outgoing: 118

Incoming: Output activation of COc1ccc(CC(=O)NCC(c2ccc(OC)cc2)N(C)C)cc1 (centres undefined)
Outgoing: 46.5

Incoming: Return the recorded activation value; entry: CCN1CCCC1CNC(=O)c1cc2c(OC)cccc2[nH]1 (centres undefined)
Outgoing: 36.5
